Biological target: L-lactate dehydrogenase (Plasmodium falciparum (isolate CDC / Honduras)) (UniProt Q27743)
Sequence (Q27743 whole entry, looked up): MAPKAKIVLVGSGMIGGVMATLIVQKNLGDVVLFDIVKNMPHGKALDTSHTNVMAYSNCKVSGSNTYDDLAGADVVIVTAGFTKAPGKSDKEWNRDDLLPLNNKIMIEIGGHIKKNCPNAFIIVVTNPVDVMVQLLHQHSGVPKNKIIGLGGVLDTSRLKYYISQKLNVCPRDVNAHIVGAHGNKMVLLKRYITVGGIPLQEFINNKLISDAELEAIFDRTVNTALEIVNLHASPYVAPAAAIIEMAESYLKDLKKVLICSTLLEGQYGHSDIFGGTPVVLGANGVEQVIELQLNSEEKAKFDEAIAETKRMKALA
Assay: PfLDH activity inhibition – cell lysate, 3D7 strain, counter-screen for P. falciparum growth inhibition project (AID 2304);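 also: 0% = vehicle and 100% = reference inhibitor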
Settings: P. falciparum 3D7 crude extract, LDH APAD/NBT absorbance; at 2 µM; stronger effect = higher value
Please respond with reported inhibition for every item in the list.
Your answer should be a plain number; it is taken to be in %.

Fill blank: measured inhibition of the compound "Cc1ccc(S(=O)(=O)N(C)c2ccccc2C(=O)Nc2ccccc2Oc2ccccc2)cc1" is ____.
3

For the compound shown here, "O=C(Nc1cccc(-c2csc(-c3nc4ccccc4[nH]3)c2)c1)c1ccncc1" , give the reported inhibition.
-1

Item under review: "CC(C)COc1ccc(Cl)cc1Cc1ccc(-c2nc3ccc(CCN4CCCC4)cc3[nH]2)o1" . Reported inhibition?
1

Param item = "C[C@H](Cc1ccc(OCCCCCCOc2ccc(C[C@@H](C)NC(=O)[C@H](O)c3cccc(Cl)c3)cc2)cc1)NC[C@H](O)c1cccc(Cl)c1" ; retrieve measured inhibition.
-3

* * *

Assay: human hepatoma cell viability loss – ATP luminescence, cytotoxicity control for P. falciparum antimalarial project, primary screen (AID 2303);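 also: 0% = DMSO wells and 100% = digitonin-killed cells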
Conditions: HepG2 viability, 24-48 h, at 10 µM, stronger effect = higher value
Hi there, I'd appreciate the recorded inhibition for every entry that follows.
Give the quantity in %, number only.

What value of measured inhibition is listed for CC(C)(C)c1ccc(CN2CCC(CNC(=O)c3cc(-c4ccccc4C(F)(F)F)cs3)C2)cc1 (stereo not given) ?
61

What value of measured inhibition is listed for O=C(NC(Cc1ccccc1)C(=O)O)c1cc(=O)c2ccccc2o1 (stereo not given) ?
53

Fill blank: measured inhibition of the compound "COc1ccc2nccc(NN=Cc3ccccc3Cl)c2c1" is ____.
29

# get_value(readout='inhibition', item= "COc1ccccc1NC(=O)Nc1ccc(-c2ccc(-c3nc4ccc(C(F)(F)F)cc4[nH]3)cc2)cc1" )
52

Returns the measured inhibition for the input compound. Input: OC(Cn1ccnc1)(c1ccc(Cl)cc1Cl)C1CCCCC1 (stereo not given)
7

Report inhibition for "C=CCc1c(C(=O)NCC23CC4CC(CC(C4)C2)C3)[nH]c2ccccc2c1=O" please.
40

May I ask what inhibition has been recorded for O=C(NC1CCN(CCCOc2ccnc3cc(Cl)ccc23)C1)c1ccc(Br)cc1 (stereo not given) ?
21

Return reported inhibition; argument: "CCC(CC)(Cc1ccccc1)NC(=O)[C@H](CC1CCCCC1)Nc1ccc(C#N)c2ccccc12"
4

May I ask what inhibition has been recorded for "O=S(=O)(NCCN1CCCC1)c1ccc(-c2ccc(CNCc3ccsc3)cc2)cc1F" ?
27

Give the measured inhibition of "CCCN1CCN(c2cc(NCC)c3c4c(onc24)-c2ccccc2C3=O)CC1" .
4

What value of measured inhibition is listed for "CCCCCCNC[C@@H](O)[C@H](Cc1ccccc1)NC(=O)c1cc(NCC)cc(N2CCCCS2(=O)=O)c1" ?
5

// lookup inhibition for CN(C)c1ccc(-c2cscc2C(=O)NC2CCCN(Cc3cccnc3)C2)cc1 (stereo not given)
5

inhibition for "COc1cc2nc(N[C@@H](CO)c3ccccc3)nc(NCc3ccccc3)c2cc1OC" ?
6

Consider the compound "O=C(COc1ccc(Cl)c(Cl)c1)NCCCCCN1CCCN(C(=O)Nc2cc(Cl)cc(Cl)c2)CC1" and give its measured inhibition.
44

Record request: inhibition value, item "O=C(/C=C/c1ccc(Cl)cc1)NCCCCCN1CCC(C(=O)Nc2cccc(Cl)c2)CC1"
22

Entry "CCCCc1ccc(C(=O)NC2CCN(C[C@H](O)c3ccnc4ccc(OC)cc34)CC2)cc1" has what inhibition?
24

Look up inhibition for this compound: "Oc1ccccc1CN1CCN(C(c2ccccc2)c2ccccc2)CC1"
-4

What value of measured inhibition is listed for CC(C)NCc1ccc(-c2ccc(CN3CCCC(c4ccccc4)C3)cc2)c(C(=O)NCC2CCCCC2)c1 (stereo not given) ?
79

// query inhibition value for entry "CC(C)NCc1ccc(-c2cccc(NC(=O)c3ccc(F)cc3)c2)cc1"
28

Quick one: inhibition of "NC(=NC1CC1)c1ccc2nc(CCCCCc3nc4ccc(C(N)=NC5CC5)cc4[nH]3)[nH]c2c1" ?
-3

* * *

Assay: inhibition of 3D7 malaria parasite growth – strain 3D7 (AID 2306);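 also: 0% = DMSO wells and 100% = chloroquine plus artemisinin control wells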
Settings: P. falciparum 3D7 erythrocytic growth, LDH absorbance, 72 h; at 2 µM; stronger effect = higher value
Active and inactive are the calls of the source. No rule for the calls is given here.
assay-metric: growth inhibition

I would be grateful if you could share the reported growth inhibition for "Cc1[nH]nc2cc(Nc3nccc(Nc4ccc(Oc5ccccc5)cc4)n3)ccc12" .
101% (active)

Data request, read-out growth inhibition, for "CC[C@H](NC(=O)c1ccc(NC(=O)OC(C)(C)C)cc1)C(=O)N[C@@H](CO)C(=O)NCCCCc1ccccc1"
98% (active)

Return reported growth inhibition; argument: "CCOc1cc2ncnc(Nc3cc(Cl)c(Cl)c(Cl)c3)c2cc1OCC"
102% (active)

Form field: reported growth inhibition of O=C(Cc1cccc(O)c1)NCC(Cc1ccc(O)cc1)c1ccccc1 (stereo not given)
91% (active)

Endpoint output: growth inhibition of Cc1ccccc1C1CCN(C2CCC(NC(=O)c3cc4cc(Cl)ccc4o3)CC2)CC1 (stereo not given) . Value?
89% (active)

* * *

Please go through the items and note down their growth inhibition.
Assay: inhibition of 3D7 malaria parasite growth – strain 3D7 (AID 2306);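 also: 0% = DMSO wells and 100% = chloroquine plus artemisinin control wells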
Conditions: P. falciparum 3D7 erythrocytic growth, LDH absorbance, 72 h; at 2 µM; stronger effect = higher value
Value expressed in %; do not type the unit.

Using the record for "c1ccc(CNc2nc(NCCN3CCCCC3)nc3ccccc23)cc1" , report its growth inhibition.
87

Query: growth inhibition; subject: "Cc1[nH]c(C)c(-c2ccc(-c3ccc(C(F)F)cc3)nc2)c(=O)c1Cl"
97

Quick one: growth inhibition for "Cc1[nH]c(C)c(-c2ccc(OCc3cc(C(F)(F)F)cc(C(F)(F)F)c3)nc2)c(=O)c1Cl" ?
98

Which measured growth inhibition value corresponds to "CC1(C)N=C(N)N=C(N)N1OCCSCc1cc(Cl)sc1Cl" ?
93

Given the molecule "O=[N+]([O-])c1cccc(NC(=S)N2CCCN(Cc3ccc(C(F)(F)F)cc3)CC2)c1" , what is its reported growth inhibition?
90

What value of measured growth inhibition is listed for "COc1cc2ncnc(Nc3ccc4nc(-c5ccccc5)[nH]c4c3)c2cc1OC" ?
92

Any idea what its growth inhibition is? The molecule is "O=C(Cc1cnc[nH]1)Nc1cccc(-c2cccc(-c3nc4ccccc4[nH]3)c2)c1"
97

Consider the molecule shown here: "Cn1cc(-c2ccccc2C(=O)O)c(=O)c2cc(Cl)ccc21" What is its recorded growth inhibition?
89

What growth inhibition value was documented for this molecule, O=C(/C=C/c1ccc(Cl)c(Cl)c1)NCCCCCN1CCCC(C(=O)Nc2ccc(F)c(Cl)c2)C1 (centres undefined) ?
99

Please give the measured growth inhibition for this molecule: Cc1cccc2[nH]c(-c3cccc(-c4ccc(NC(=O)C5CC(=O)Nc6ccccc65)cc4)c3)nc12 (centres undefined)
87

Quick one: growth inhibition of "CC(=O)c1nccc(C)c1N" ?
92

Dear colleague, I am looking for the recorded growth inhibition of the following molecule: "COc1cc2c(cc1S(=O)(=O)c1ccc(NC(=O)c3ccc4ccccc4c3)cc1)CCN(C)CC2"
99

Need growth inhibition of "O=C(Nc1ccc(O)c(-c2nc3ccccc3[nH]2)c1)c1ccc([N+](=O)[O-])cc1" , thanks.
97

Request the reported growth inhibition associated with "COc1ccc2nc(C)cc(NCc3ccc4ccccc4c3)c2c1"
101

Can you look up the measured growth inhibition of "Cc1c(CNCCCNc2cc(=O)c3ccccc3[nH]2)sc(C(F)F)c1Br" for me?
98

Any idea what its growth inhibition is? The molecule is "Cc1cc(Nc2ccncc2)n2nc(C)c(-c3ccc(Cl)cc3)c2n1"
101

Value lookup for growth inhibition; key = "CN(C(=O)c1nn(-c2ccccn2)c2nccc(-c3cccs3)c12)C1CCCCC1"
87

Return reported growth inhibition; argument: "CCC[C@@H]([C@@H](CC1CCCCC1)C(=O)N[C@H](C(=O)Nc1nccs1)C(C)(C)SC)N(O)C=O"
97

Item Cc1ccc(C2CC(c3cccs3)=NN2C(=O)c2ccc(Br)o2)cc1 (centres undefined) has what recorded growth inhibition?
99

// growth inhibition lookup, key: CC(=O)c1cccc(NC(=O)C2c3ccccc3C(=O)N(CC(C)C)C2c2cccs2)c1 (centres undefined)
100

Could you tell me which growth inhibition is on file for O=C(Nc1ccc(OC2CCN(Cc3ccccc3)C2)c(Cl)c1)c1ccsc1 (centres undefined) ?
93

Which growth inhibition value is on record for "CCOC(=O)c1ccc(NC(=O)Nc2cccc(-c3ccc(-c4nc5c(C)cccc5[nH]4)s3)c2)cc1" ?
100

Request the reported growth inhibition associated with "C=CCN(c1nc(NC)nc(NCc2c(OC)cccc2OC)n1)C1CCCC1"
85

Returns the measured growth inhibition for the input molecule. Input: "Cc1ccccc1N1CCN(c2ccc(C(=O)NC3CC3)cn2)CC1"
96

What growth inhibition value was documented for this molecule, "O=C(Nc1cccc(C(F)(F)F)c1)NC1CCN(c2ccnc3cc(Cl)ccc23)CC1" ?
101

What value of growth inhibition has been recorded for this entry: "O=C(/C=C/c1ccc(Cl)c(Cl)c1)NCCCCCCN1CCN(C(=O)Nc2ccc(C(F)(F)F)cc2)CC1"
100

// lookup growth inhibition for "N#CN1CC[C@@H](OC(=O)N[C@@H]2C[C@H]2c2ccccc2)C1"
84

Would you kindly share the measured growth inhibition for O=C(Nc1ccc(OC2CCN(Cc3ccsc3)C2)c(Cl)c1)c1ccc(F)cc1 (centres undefined) ?
89

Fill in the blank: the reported growth inhibition of CCC(C)NS(=O)(=O)c1ccc2nc(Nc3ccc(C)c(Cl)c3)n(C3CCCCC3)c2c1 (centres undefined) is ____.
99

I would be grateful if you could share the reported growth inhibition for "COc1ccc(CNC2CCN(C)CC2)cc1-c1ccc(S(=O)(=O)NCCc2ccccn2)s1" .
100

Which growth inhibition is listed for O=C(C1CCCC1)N1CCOC(CCN2CCC(c3ccccc3)CC2)(c2ccc(Cl)c(Cl)c2)C1 (centres undefined) ?
88

Data request, read-out growth inhibition, for "CN(C)CCOc1cc(NC(=O)c2ccc(-c3ccc(Cl)cc3Cl)cc2)ccc1-c1ccccc1"
98

Consider the molecule "O=C(Nc1ccc(Cl)cc1)Nc1ccc(-c2cccc(-c3nc4ccccc4[nH]3)c2)cc1" and give its measured growth inhibition.
100

Could you share which growth inhibition value was measured for "CCN(CC)CCN(Cc1ccc(-c2ccc(C(F)(F)F)cc2)cc1)C(=O)Cn1cc(CCCCc2cccc(F)c2F)c(=O)c2ccccc21" ?
90

Suppose we examine the molecule "CN1CCN(CC(=O)Nc2ccc(-c3ccc(-c4nc5ccccc5[nH]4)s3)cc2)CC1" ; what growth inhibition value has been reported?
101

Return reported growth inhibition; argument: "Cc1ccc(Nc2nc(C)cc(NC3CC3)n2)cc1"
97

Param item = "Cc1cc(F)ccc1[C@H]1CNCCN1C(=O)N(C)C(C)(C)c1cc(C(F)(F)F)cc(C(F)(F)F)c1" ; retrieve measured growth inhibition.
101

Requested read-out: growth inhibition. Entry: "O=C(NCCN1CCCC1)c1cc(-c2ccc(Cl)c(O)c2)c(-c2ccncc2)o1"
92

Can you look up the measured growth inhibition of CC(=O)Nc1cccc(CNCc2ccc(-c3cnc(N4CCCC(c5ccccc5)C4)nc3)cc2)c1 (centres undefined) for me?
84
